For each record, write down the corresponding RALB.
# Species on record: Rattus norvegicus
# METHOD: Open TG-GATES - Regimen: Single
# Assay type: toxicity, organism-based, Sprague-Dawley
# Design: regimen Single, gender Male, age 6 weeks
# REPORTED CONDITIONS: in vivo, po, 1000 mg/kg, 9 h, tissue Plasma, route gavage, dose level High
Numeric answer only, unit g/dL assumed.

// query Tell me the measured RALB of O=C(O)c1cc(/N=N/c2ccc(S(=O)(=O)Nc3ccccn3)cc2)ccc1O , please.
// result 3.5

// query Form field: reported RALB of CCc1cc(C(N)=S)ccn1 [ETHIONAMIDE]
// result 3.5

// query Reported RALB, molecule C[C@H](CS)C(=O)N1CCC[C@H]1C(=O)O : ____
// result 3.4

// query Reported RALB, molecule O=C(O)c1cn(C2CC2)c2cc(N3CCNCC3)c(F)cc2c1=O : ____
// result 3.8

// query Fill blank: measured RALB of the molecule Clc1ccccc1CN1CCc2sccc2C1 is ____.
// result 3.6

###

# Organism: Rattus norvegicus
# METHOD: Open TG-GATES - Regimen: Single
# Format: toxicity, organism-based, Sprague-Dawley
# Design: regimen Single, gender Male, age 6 weeks
# REPORTED CONDITIONS: in vivo, po, 1000 mg/kg, 24 h, tissue Blood, route gavage, dose level High
OBSERVED PROPERTY: RBC

// query Tell me the measured RBC of O=C(O)c1cc(/N=N/c2ccc(S(=O)(=O)Nc3ccccn3)cc2)ccc1O , please.
// result 624 x10_4/ul

// query Consider the compound shown here: CCc1cc(C(N)=S)ccn1 [ETHIONAMIDE] What is its recorded RBC?
// result 691.2 x10_4/ul

// query State the recorded RBC for this entry: O=C(O)c1cn(C2CC2)c2cc(N3CCNCC3)c(F)cc2c1=O
// result 600.2 x10_4/ul

// query Need RBC, item C[C@H](CS)C(=O)N1CCC[C@H]1C(=O)O
// result 589.4 x10_4/ul

// query Reported RBC for Clc1ccccc1CN1CCc2sccc2C1 : what is it?
// result 650 x10_4/ul

###

# Organism: Rattus norvegicus
# METHOD: Open TG-GATES - Regimen: Single
# Format: toxicity, organism-based, Sprague-Dawley
# Design: regimen Single, gender Male, age 6 weeks
# REPORTED CONDITIONS: in vivo, po, 300 mg/kg, 9 h, tissue Blood, route gavage, dose level Middle
Kindly state Bas for each of the entries shown.
Response body: numeric value in %, unit text excluded.

// query So what's the measured Bas for this one? CCc1cc(C(N)=S)ccn1 [ETHIONAMIDE]
// result 0

// query What value of Bas has been recorded for this entry: O=C(O)c1cc(/N=N/c2ccc(S(=O)(=O)Nc3ccccn3)cc2)ccc1O
// result 0

// query If you can, please state the reported Bas value of Clc1ccccc1CN1CCc2sccc2C1 .
// result 0.2

// query I'd like to know its Bas. The compound in question is O=C(O)c1cn(C2CC2)c2cc(N3CCNCC3)c(F)cc2c1=O
// result 0

// query # input compound: C[C@H](CS)C(=O)N1CCC[C@H]1C(=O)O ; wanted: its Bas
// result 0
